measurementTarget: Casein kinase I isoform delta (Homo sapiens, UniProt P48730)
Sequence (P48730 whole entry, canonical isoform): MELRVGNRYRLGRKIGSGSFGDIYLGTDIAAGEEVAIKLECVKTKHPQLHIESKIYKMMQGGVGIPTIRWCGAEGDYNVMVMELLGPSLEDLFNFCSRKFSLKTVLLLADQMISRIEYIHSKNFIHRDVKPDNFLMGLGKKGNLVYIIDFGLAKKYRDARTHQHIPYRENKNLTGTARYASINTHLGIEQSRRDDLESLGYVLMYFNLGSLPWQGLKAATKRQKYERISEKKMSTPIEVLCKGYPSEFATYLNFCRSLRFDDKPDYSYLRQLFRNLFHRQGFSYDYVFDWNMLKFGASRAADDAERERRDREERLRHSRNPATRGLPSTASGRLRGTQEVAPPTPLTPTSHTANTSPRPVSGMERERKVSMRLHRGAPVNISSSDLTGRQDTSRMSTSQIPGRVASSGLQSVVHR
method: Inhibition of CK1delta expressed in Escherichia coli

| compoundSmiles | IC50 |
| --- | --- |
| COc1ccc(-n2cnc3ccc(-c4nnc(SCc5cccc(C#N)c5)o4)cc32)cc1 | > 10 µM |
